- Assayed target: PARP7 (Homo sapiens (Human))
- Assay name: Enzymatic assay for inhibition of PARP7: TR-FRET displacement of biotinylated Probe A from the TIPARP active site
- Condition summary: Table A-1
pIC50: −log10 of the molar value.
Listed here: items and their measured pIC50.

Molecule	pIC50
CN1CCN(C(=O)c2cccc(OCC3c4ccccc4CN3c3cn[nH]c(=O)c3C(F)(F)F)c2)CC1 (stereo not shown)	6.00 to 7.00
C[C@@H](COCCC(=O)N1CCC(Nc2ncc(C#N)s2)C1)Nc1cn[nH]c(=O)c1C(F)(F)F (stereo partly shown)	> 7.00
O=C(c1cncc(OCC2c3ccccc3CN2c2cn[nH]c(=O)c2C(F)(F)F)c1)N1CCN(c2ncc(C(F)(F)F)cn2)CC1 (stereo not shown)	> 7.00
CN1CCC(COc2cc3c(cc2F)CN(c2cn[nH]c(=O)c2C(F)(F)F)C3)CC1	> 7.00

[in] Fill in the recorded pIC50 for this molecule, with PARP7 (Homo sapiens (Human)) as test system: C[C@@H]1c2ccccc2CN1c1cn[nH]c(=O)c1C(F)(F)F
[out] ≤ 6.00

[in] Which measured pIC50 belongs to C[C@H](CC(=O)N1CCN(c2ccc(C#N)cn2)CC1)OC[C@H](C)Oc1cn[nH]c(=O)c1C(F)(F)F (single isomer, unassigned) [Example 576 Isomer A] , tested on PARP7 (Homo sapiens (Human))?
[out] > 7.00

[in] # get_value(readout= pIC50, system= PARP7 (Homo sapiens (Human))) for CN(CCC(=O)N1CCN(c2ccc(C#N)cn2)CC1)C[C@@H]1c2ccccc2CN1c1cn[nH]c(=O)c1Cl
[out] > 7.00

====

Each entry below carries its recorded pIC50.
- Assayed target: PARP7 (Homo sapiens (Human))
- Assay name: Enzymatic assay for inhibition of PARP7: TR-FRET displacement of biotinylated Probe A from the TIPARP active site
- Format: binding
- Condition summary: Table A-1
pIC50: −log10 of the molar value.

                            compound_smiles  measured_endpoint  test_value
0  CO[C@H]1C[C@@H](COCCC(=O)N2CCN(c3ccc(C#N)cn3)CC2)N(c2cn[nH]c(=O)c2C(F)(F)F)C1              pIC50      > 7.00
1  C[C@@H](COCCC(=O)N1CCN(c2ccc(C(F)(F)F)cn2)CC1)Oc1cn[nH]c(=O)c1C(F)(F)F              pIC50      > 7.00
2      NCCOc1cccc2c1CN(c1cn[nH]c(=O)c1Cl)C2              pIC50      ≤ 6.00

[in] Lab note: need pIC50 with PARP7 (Homo sapiens (Human)) for entry O=c1[nH]ncc(N2Cc3cccc(OC4CCN(CC(c5ccccc5)c5ccccc5)CC4)c3C2)c1C(F)(F)F , please look it up.
[out] > 7.00

====

Measured pIC50 of individual entries
- Assayed target: PARP7 (Homo sapiens (Human))
- Assay name: Enzymatic assay for inhibition of PARP7: TR-FRET displacement of biotinylated Probe A from the TIPARP active site
- Condition summary: Table A-1
pIC50: −log10 of the molar value.

Example results:
Compound	pIC50
C[C@@H](CC(=O)N1CCN(c2ccc(C#N)cn2)CC1)OCCNc1cn[nH]c(=O)c1C(F)(F)F [Example 528A]	> 7.00
N#Cc1ccc(N2CCN(C(=O)CCOC[C@@H]3c4ccccc4CN3c3cn[nH]c(=O)c3C(F)(F)F)CC2)nc1 (single isomer, unassigned) [Example 93 Isomer A]	> 7.00
C#CCOC[C@@H]1CCCN1c1cn[nH]c(=O)c1C(F)(F)F	≤ 6.00
O=c1[nH]ncc(N2Cc3cc(F)c(CNC4CCNCC4)cc3C2)c1C(F)(F)F	> 7.00
N#Cc1cnc(N2CCN(C(=O)c3cccc(OC[C@@H]4c5ccccc5CN4c4cn[nH]c(=O)c4C(F)(F)F)c3)CC2)nc1	> 7.00
N#Cc1ccc(NCCC(=O)Nc2cccc(OCC3c4ccccc4CN3c3cn[nH]c(=O)c3C(F)(F)F)c2)nc1 (centres unmarked)	> 7.00

[in] Name the recorded pIC50 for N#Cc1ccc(N2CCN(C(=O)[C@@H]3CNC[C@@H](OC[C@@H]4CCCN4c4cn[nH]c(=O)c4C(F)(F)F)C3)CC2)nc1 (single isomer, unassigned) [Example 56 Isomer A] .
[out] > 7.00

[in] GET /values?readout=pIC50&item= C[C@H](COc1cn[nH]c(=O)c1C(F)(F)F)OCCC(=O)N1CCN(c2ncc(Cl)cn2)CC1 (single isomer, unassigned) [Example 543 Isomer C]
[out] > 7.00

[in] Entry C[C@H]1CN(c2ccc(C#N)cn2)CCN1C(=O)CCOC[C@@H]1CCCN1c1cn[nH]c(=O)c1C(F)(F)F [Example 100B] : reported pIC50 = ?
[out] > 7.00

====

Recorded IC50 by entry
- Assayed target: PARP7 (Homo sapiens (Human), UniProt Q7Z3E1)
- Sequence (Q7Z3E1 whole entry): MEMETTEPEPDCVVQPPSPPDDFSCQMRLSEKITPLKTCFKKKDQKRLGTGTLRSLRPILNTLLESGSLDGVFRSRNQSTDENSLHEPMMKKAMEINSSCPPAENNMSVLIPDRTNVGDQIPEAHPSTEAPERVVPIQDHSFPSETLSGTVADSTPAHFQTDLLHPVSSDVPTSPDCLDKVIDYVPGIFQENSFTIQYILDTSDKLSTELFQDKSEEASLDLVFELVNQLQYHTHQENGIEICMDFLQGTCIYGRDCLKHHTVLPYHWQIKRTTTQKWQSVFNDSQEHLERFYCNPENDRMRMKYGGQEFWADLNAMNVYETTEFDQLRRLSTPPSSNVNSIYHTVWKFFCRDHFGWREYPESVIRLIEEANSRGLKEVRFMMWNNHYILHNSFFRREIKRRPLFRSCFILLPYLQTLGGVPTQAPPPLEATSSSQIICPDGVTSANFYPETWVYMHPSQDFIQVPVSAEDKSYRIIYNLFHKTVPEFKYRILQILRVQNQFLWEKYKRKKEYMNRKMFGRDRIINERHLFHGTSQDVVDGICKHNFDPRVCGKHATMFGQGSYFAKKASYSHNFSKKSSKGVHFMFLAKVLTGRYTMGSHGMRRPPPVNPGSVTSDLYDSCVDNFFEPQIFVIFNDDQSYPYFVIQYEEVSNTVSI
- Assay name: Enzymatic assay for inhibition of PARP7: TR-FRET displacement of biotinylated Probe A from the TIPARP active site
- Condition summary: Table A-1

Solved entries (count: 2):
                                   molecule      test_value
0  CC1(C)CC(Nc2cccc3c2CN(c2cn[nH]c(=O)c2C(F)(F)F)C3)CC(C)(C)N1  100 to 1000 nM
1  N#Cc1ccc(N2CCN(C(=O)N3CC[C@@H](OC[C@@H]4CCCN4c4cn[nH]c(=O)c4C(F)(F)F)C3)CC2)nc1 [Example 129A]  100 to 1000 nM

[in] Sample O=c1[nH]ncc(N2Cc3cc(OC4CCNCC4)cc(F)c3C2)c1C(F)(F)F — what was its IC50?
[out] < 100 nM

[in] Suppose we examine the molecule CN1CCCC1COc1cc2c(cc1F)CN(c1cn[nH]c(=O)c1C(F)(F)F)C2 (stereo not shown) ; what IC50 value has been reported?
[out] < 100 nM

====

- Assayed target: PARP7 (Homo sapiens (Human), UniProt Q7Z3E1)
- Assay name: Enzymatic assay for inhibition of PARP7: TR-FRET displacement of biotinylated Probe A from the TIPARP active site
- Condition summary: Table A-1
Measured endpoint: IC50

In [3]: df
Out[3]:
                                   molecule  test_value
0  N#Cc1ccc(N2CCN(C(=O)CCNCCOc3cn[nH]c(=O)c3C(F)(F)F)CC2)nc1   ≥ 1000 nM
1  O=C(CCNC[C@@H]1c2ccccc2CN1c1cn[nH]c(=O)c1C(F)(F)F)N1CCN(c2ccc(C(F)(F)F)cn2)CC1    < 100 nM
2  N#Cc1ccc(NCCC(=O)Nc2cncc(OC[C@@H]3CCCN3c3cn[nH]c(=O)c3C(F)(F)F)c2)nc1    < 100 nM

API: the following record is the query input.
[in] Recorded IC50 of N#Cc1ccc(N2CCN(C(=O)c3cccc(OCC4COCCN4c4cn[nH]c(=O)c4C(F)(F)F)c3)CC2)nc1 (stereo not shown) , please.
[out] 100 to 1000 nM

====

- Assayed target: PARP7 (Homo sapiens (Human), UniProt Q7Z3E1)
- Assay name: Enzymatic assay for inhibition of PARP7: TR-FRET displacement of biotinylated Probe A from the TIPARP active site
- Condition summary: Table A-1
pIC50: −log10 of the molar value.
Measured endpoint: pIC50

Compound	pIC50
COC[C@@H](COCCC(=O)N1CCN(c2ccc(C#N)cn2)CC1)Oc1cn[nH]c(=O)c1C(F)(F)F (single isomer, unassigned) [Example 532 Isomer A]	> 7.00
N#Cc1ccc(N2CC3CN(C(=O)CCOC[C@@H]4CCCN4c4cn[nH]c(=O)c4C(F)(F)F)CC3C2)nc1 (stereo in doubt)	> 7.00
O=C(c1cccc(NCC2c3ccccc3CN2c2cn[nH]c(=O)c2C(F)(F)F)c1)N1CCN(c2ccccn2)CC1 (centres unmarked)	6.00 to 7.00

[in] For C[C@@H](COCCS(=O)(=O)N1CCN(c2ncc(C(F)(F)F)s2)CC1)Nc1cn[nH]c(=O)c1Cl , what is its reported pIC50?
[out] > 7.00

[in] May I ask what pIC50 has been recorded for O=c1[nH]ncc(N2Cc3cccc(Oc4ccncn4)c3C2)c1C(F)(F)F ?
[out] > 7.00

[in] Reported pIC50 for C[C@@H](COCCC(=O)N1CCN(c2ncc(Cl)cn2)CC1)Nc1cn[nH]c(=O)c1Cl : what is it?
[out] > 7.00

====

pIC50 reference
- Assayed target: PARP7 (Homo sapiens (Human))
- Assay name: Enzymatic assay for inhibition of PARP7: TR-FRET displacement of biotinylated Probe A from the TIPARP active site
- Condition summary: Table A-1
pIC50: −log10 of the molar value.

Recorded pIC50, per entry:
Molecule	Test value
C[C@@H](COCCC(=O)N1CCN(c2ncc(Cl)cn2)CC1)Nc1cn[nH]c(=O)c1C(F)(F)F	> 7.00
O=C(CC1CCC(COc2cn[nH]c(=O)c2C(F)(F)F)N1)N1CCN(c2ncc(C(F)(F)F)cn2)CC1 (stereo not shown)	6.00 to 7.00
CC(=O)N1CCCC1COc1cc2c(cc1F)CN(c1cn[nH]c(=O)c1C(F)(F)F)C2 (stereo not shown)	> 7.00
COCC1c2ccccc2CN1c1cn[nH]c(=O)c1C(F)(F)F (stereo not shown)	≤ 6.00
CC(=O)NCCOc1cccc2c1CN(c1cn[nH]c(=O)c1C(F)(F)F)C2	> 7.00
COCC1C[C@@H](COCCC(=O)N2CCN(c3ccc(C#N)cn3)CC2)N(c2cn[nH]c(=O)c2C(F)(F)F)C1 (stereo partly shown)	> 7.00
N#Cc1ccc(N2CCN(C(=O)CCOC[C@@H](Nc3cn[nH]c(=O)c3C(F)(F)F)C3CC3)CC2)nc1	> 7.00
O=C(C[C@@H]1CC[C@H]([C@@H]2CCCN2c2cn[nH]c(=O)c2C(F)(F)F)O1)N1CCN(c2ncc(Cl)cn2)CC1 (single isomer, unassigned) [Example 147C]	6.00 to 7.00
O=C(CCOC[C@H](CO)Nc1cn[nH]c(=O)c1Br)N1CCN(c2ncc(C(F)(F)F)cn2)CC1	> 7.00
CNCc1cccc2c1CN(c1cn[nH]c(=O)c1C(F)(F)F)C2	≤ 6.00

[in] Recall the recorded pIC50 for N#Cc1cnc(N2CCN(C(=O)c3cncc(OC[C@H]4c5ccccc5CN4c4cn[nH]c(=O)c4C(F)(F)F)c3)CC2)nc1 with PARP7 (Homo sapiens (Human)) and state it.
[out] ≤ 6.00

[in] Please tell me: pIC50 of CN(C)CCOc1cnc2c(c1)CN(c1cn[nH]c(=O)c1C(F)(F)F)C2 , system PARP7 (Homo sapiens (Human))?
[out] 6.00 to 7.00

[in] Please provide the recorded pIC50 for C[C@H](COCCC(=O)N1CCN(c2ncc(Cl)cn2)CC1)Oc1cn[nH]c(=O)c1C(F)(F)F [Example 543 Isomer D] , tested on PARP7 (Homo sapiens (Human)).
[out] 6.00 to 7.00
